Taken from patent US20220380463A1.

# Tested target: T1, human CD3 on CD3+ Jurkat cells (human, UniProt P07766 23-207)
# T1 construct: whole, on cells; Native CD3 complex on cells; the other CD3 chains are not specified for this assay; also called Human CD3+ Jurkat
# T1 sequence (P07766 23-207): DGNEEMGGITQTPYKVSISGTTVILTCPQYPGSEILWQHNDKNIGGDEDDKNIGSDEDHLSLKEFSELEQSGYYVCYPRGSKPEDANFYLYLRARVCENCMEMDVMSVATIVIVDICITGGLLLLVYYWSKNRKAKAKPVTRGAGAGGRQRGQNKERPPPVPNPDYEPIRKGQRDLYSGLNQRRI
# Experimental details: flow cytometry on CD3+ Jurkat cells, ratio of MFI at pH 6.0 to pH 7.4
# Procedure: Specificity of the anti-CD3 antibodies for human CD3+ Jurkat cells compared to CHO-S cells at pH 6.0 and 7.4 was determined using a FACS cell binding assay. Briefly, CD3+ human Jurkat cells and CHO-S cells were thawed and washed with cold PBSF buffer, pH 7.4 (PBS+0.1% BSA, pH 7.4). About 200,000 cells were aliquoted per well of a 96-well plate and pelleted by centrifugation (5 minutes at 500×g). […] Binding was analyzed on FACS Canto II. Cell binding assays. […] Binding was analyzed on FACS Canto II.
Measured property: MFI pH 6.0/MFI pH 7.4
Enter a number only.

Binder	MFI pH 6.0/MFI pH 7.4
SAD10319_P04_G11 (ADI-48641) (antibody, V domains shown, IgG; also called Ab39) VH: QVQLVQSGAEVKKPGASVKVYCKASGYTFTTYEMHWVRQAPGQRLEWMGSINAGDANTKYSQKFQGRVTITRDTSASTAYMELSSLRSEDTAVYYCARDAYHHYFYDVWGQGTLVTVSS VL: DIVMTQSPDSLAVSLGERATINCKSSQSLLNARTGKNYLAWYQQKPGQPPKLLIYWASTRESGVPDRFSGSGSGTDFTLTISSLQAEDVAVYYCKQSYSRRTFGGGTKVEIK	1.1

Short answer for SAD10320_P01_E01 (ADI-48645) (antibody, V domains shown, IgG; also called Ab49) VH: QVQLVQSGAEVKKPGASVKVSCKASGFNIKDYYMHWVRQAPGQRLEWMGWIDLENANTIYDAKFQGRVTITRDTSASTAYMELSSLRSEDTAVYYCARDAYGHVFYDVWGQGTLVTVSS VL: DIVMTQSPDSLAVSLGERATINCKSSQSLLNARTGKNYLAWYQQKPGQPPKLLIYWASTRESGVPDRFSGSGSGTDFTLTISSLQAEDVAVYYCKQSYKHRTFGGGTKVEIK : MFI pH 6.0/MFI pH 7.4 was 11.1
